// values below are reported Binding of CR57 to linear peptide (PEPSCAN-ELISA signal)
- Test system: human monoclonal antibody CR57
- Assay type: binding
Lab note: record the figure alone, no unit after it.

Solved cases (4 shown):
sequence-record | target-of-assay | value-observed
ESSVIPLVHPLADPS | human monoclonal antibody CR57 | 104
NEILPSKGCLRVGGR | human monoclonal antibody CR57 | 104
CHPHVNGVFFNGIIL | human monoclonal antibody CR57 | 97
CTNLSGFSYMELKVG | human monoclonal antibody CR57 | 47

Record FVDERGLYKSLKGAC , field Binding of CR57 to linear peptide (PEPSCAN-ELISA signal): 86

Record VGGRCHPHVNGVFFN , field Binding of CR57 to linear peptide (PEPSCAN-ELISA signal): 120

Record IKMNGFTCTGVVTEA , field Binding of CR57 to linear peptide (PEPSCAN-ELISA signal): 68

Record IPEMQSSLLQQHMEL , field Binding of CR57 to linear peptide (PEPSCAN-ELISA signal): 89

Record KMNGFTCTGVVTEAE , field Binding of CR57 to linear peptide (PEPSCAN-ELISA signal): 76
